These data points were gathered from ChEMBL document CHEMBL2218924.

# assayed system: Tyrosine-protein kinase Lck (Homo sapiens)
# study conditions: at 1 µM
Cut-off 80% on residual activity, inclusive. At or above means met; below means not met.

> print(dat)
                                    compound  classification
 1  COc1ccc(CNc2nc(N(CCO)CCO)nc3c2ncn3C(C)C)cc1             met
 2  COc1ccc(S(=O)(=O)N(CCO)c2ccccc2CN(C)C/C=C/c2ccc(Cl)cc2)cc1             met
 3  CCN(CC)C(=O)c1ccc(Nc2nc(OCC3CCCCC3)c3nc[nH]c3n2)cc1         not met
 4      COc1cc2ncnc(Nc3ccc(O)c(Br)c3)c2cc1OC         not met
 5  CC[n+]1c(/C=C/N(C)c2ccccc2)n(-c2ccccc2)c2ccc(-c3nc4ccccc4s3)cc21             met
 6  COc1ccc(C(=O)Nc2sc3c(c2C(N)=O)CCCC3)cc1OC             met
 7  N#C/C(=C(\N)Sc1ccc(N)cc1)c1ccccc1C(F)(F)F             met
 8  NC(=O)c1ccc2[nH]c(-c3ccc(Oc4ccc(Cl)cc4)cc3)nc2c1             met
 9  CO[C@@H]1[C@H](N(C)C(=O)c2ccccc2)C[C@H]2O[C@]1(C)n1c3ccccc3c3c4c(c5c6ccccc6n2c5c31)C(=O)NC4         not met
10  Cc1cccc(-c2[nH]c(C(C)(C)C)nc2-c2ccc3c(c2)OCO3)n1             met
11      CN(C)c1ccc(/C=C2\C(=O)Nc3ccccc32)cc1             met
12               Cc1cc2ncc(-c3ccccc3)nc2cc1C             met
13  Nc1nc(Nc2ccc(S(N)(=O)=O)cc2)nn1C(=S)Nc1c(F)cccc1F         not met
14       CCOc1cc2ncnc(Nc3cccc(Br)c3)c2cc1OCC         not met
15              Cc1ccc(S(=O)(=O)/C=C/C#N)cc1             met
16  O=C1NC(=O)c2cc(Nc3ccc(F)cc3)c(Nc3ccc(F)cc3)cc21         not met
17  O=C1NC(=O)/C(=C/c2ccc3c(c2)OC(F)(F)O3)S1             met
18               c1ccc2c(-c3ccncc3)c[nH]c2c1             met
19  Cn1cc(/C=C2\C(=O)Nc3ccc(S(N)(=O)=O)cc32)c2ccccc21         not met
20  O=C1Nc2ccccc2/C1=C1/Nc2ccccc2/C1=N\OCCC(O)CO (configuration not stated)         not met
21  O=C(Nc1cccc(Nc2cc(Nc3cccc(C(F)(F)F)c3)ncn2)c1)C1CC1             met

====

Overview of recorded residual activity for various compounds
# assayed system: Protein kinase C epsilon type (Homo sapiens)
# study conditions: at 10 µM
observed property: residual activity (%)

compound	observed property	experimental value
CO[C@@H]1[C@H](N(C)C(=O)c2ccccc2)C[C@H]2O[C@]1(C)n1c3ccccc3c3c4c(c5c6ccccc6n2c5c31)C(=O)NC4	residual activity	14
CCN(CC)C(=O)c1ccc(Nc2nc(OCC3CCCCC3)c3nc[nH]c3n2)cc1	residual activity	69
CO[C@H]1C[C@@H]2CC[C@@H](C)[C@@](O)(O2)C(=O)C(=O)N2CCCC[C@H]2C(=O)O[C@H]([C@H](C)C[C@@H]2CC[C@@H](O)[C@H](OC)C2)CC(=O)[C@H](C)/C=C(\C)[C@@H](O)[C@@H](OC)C(=O)[C@H](C)C[C@H](C)/C=C/C=C/C=C/1C	residual activity	82
COc1ccc(CNc2nc(N(CCO)CCO)nc3c2ncn3C(C)C)cc1	residual activity	105
